- TGT: Follistatin (Homo sapiens)
- PROCEDURE_TEXT: follistatin binders on small-molecule microarrays, primary screen, biochemical, small-molecule microarray, 635/667 nm fluorescence (AID 1132)
- TEST_CONDITIONS: FST binding, 635 nm fluorescence, higher = more signal

COMPOUND | composite z-score
CCOC(=O)C[C@H]1[C@H](OC(=O)c2ccc(-c3ccccc3)cc2)[C@@H](NC(=O)Cc2ccc(OC)cc2)c2cc(OCCCO)ccc2N1C(=O)c1ccc2ccccc2n1 | -0.0303
COc1ccc(C#Cc2ccc3c(c2)[C@]2(C(=O)N3)[C@H](C(=O)NC[C@H](O)c3ccccc3)[C@H]3C(=O)O[C@H](c4ccccc4)[C@H](c4ccccc4)N3[C@@H]2c2ccccc2OCCO)cc1 | 1.09
CO[C@H]1O[C@H](CO)[C@@H](OC(=O)Nc2ccc3c(c2)OCO3)[C@H](OC(=O)Nc2ccccc2)[C@H]1OC(=O)Nc1ccccc1 | 1.32
Cc1ccccc1C(O)C1C=CC2C(=O)N(C)C(=O)C2N1Nc1ccccc1 (centres undefined) | 0.459
O=C(O)[C@@]1(Cc2ccccc2)N=C(c2ccc(OCCCO)cc2)O[C@H]1c1ccccc1 | 0.572
CCC(CC)C(O)C1C=CC2C(=O)N(c3ccccc3)C(=O)C2N1Nc1ccc(C#N)cc1 (centres undefined) | 0.816
CCCCCCCCCCC(O)C1C=CC2C(=O)N(Cc3ccccc3)C(=O)C2N1n1cnnc1 (centres undefined) | -0.238
COCCOC(=O)N1C(=O)[C@@]2(c3cc(C#Cc4ccc(OC)cc4)ccc31)[C@H](C(=O)N1CCN(c3ncccn3)CC1)[C@H]1C(=O)O[C@H](c3ccccc3)[C@H](c3ccccc3)N1[C@@H]2c1ccc(O)cc1 | 0.755
COCCOC(=O)N1C(=O)[C@@]2(c3ccccc31)[C@H](C(=O)NC[C@H](O)c1ccccc1)[C@H]1C(=O)O[C@H](c3ccccc3)[C@H](c3ccccc3)N1[C@@H]2c1ccc(OCCO)cc1 | 1.47
COC(=O)C1=CC(CCCO)=CC(C2CC2)N(Cc2sc3ccccc3c2Cl)C=C1C(=O)OC (centres undefined) | 0.939
CC(C)(C)N1CC=CC23O[C@@H]4/C=C\CCCOC(=O)C4[C@H]2C(=O)N(CCO)[C@@H]3C1=O (some centres undefined) | -0.993
O=C1OCCC=C[C@H]2OC34C=CCN(Cc5ccccc5)C(=O)[C@H]3N(CCCCCCO)C(=O)[C@@H]4C12 (some centres undefined) | -0.0109
COc1ccc(C(=O)Nc2cccc(CN3C(=O)[C@]4(O[C@H](CC(=O)N5CCC[C@H]5CO)[C@@H]([Si](C)(C)c5ccc(OC)cc5)[C@@H]4C)c4ccccc43)c2)cc1 | 1.03
COCCOC(=O)N1C(=O)[C@@]2(c3cc(C#CCNC(N)=O)ccc31)[C@H](c1ccccc1OCCO)N1[C@H](c3ccccc3)[C@H](c3ccccc3)OC(=O)[C@H]1[C@@H]2C(N)=O | 1.25

* * *

- PROCEDURE_TEXT: CREB reporter modulators without forskolin, primary screen, cell-based, PC12, CRE-LacZ reporter, unstimulated (AID 1145)
- TEST_CONDITIONS: no forskolin, luminescence, 4.5 h, higher = more signal, called active from +8 up or from −8 down

COMPOUND | z-score
COCCCNC(=O)[C@@]1(C)c2ccccc2C(=O)N(Cc2cc(C(F)(F)F)cc(C(F)(F)F)c2)[C@H]1c1ccc(CO)cc1 | 0.468
CCOC(=O)C1=C[C@@H](CC)N(S(=O)(=O)c2ccc(C)cc2)[C@H]1c1ccccc1 | 0.22
C=C[C@H](COC(C)=O)N(Cc1ccc(OC(C)=O)c(OC)c1)S(=O)(=O)c1ccc(Br)cc1 | 0.195
O=C1C2C=CC(C(O)c3cccs3)N(Nc3ccccc3F)C2C(=O)N1c1ccccc1 (stereo unspecified) | -0.714
CC(C)=CCCC(C)=CC(O)C1C=CC2C(=O)N(c3ccccc3)C(=O)C2N1Nc1ccccc1 (stereo unspecified) | 0.819
COc1ccccc1CN1C(=O)c2ccccc2[C@@H](C(=O)NCCN2CCOCC2)[C@@H]1c1ccc(CO)cc1 | 0.001
[N-]=[N+]=NCc1ccccc1[C@H]1OC(c2ccc(OCCCO)cc2)=N[C@@]1(CCS(=O)(=O)c1ccccc1)C(=O)N1CCOCC1 | 0.526
CC(C)(C)OC(=O)CC[C@@]1(C(=O)O)N=C(c2ccc(OCCCO)cc2)O[C@@H]1c1ccccc1N=[N+]=[N-] | -0.183
[N-]=[N+]=NCc1ccccc1C[C@]1(C(=O)NCC(O)CO)N=C(c2ccc(OCCCO)cc2)O[C@H]1c1ccccc1N=[N+]=[N-] (stereo partly specified) | 0.241
C[C@]1(C(=O)NCc2ccccc2)c2ccccc2C(=O)N(Cc2cc(F)cc(C(F)(F)F)c2)[C@H]1c1ccc(CO)cc1 | 0.0909
COCCOC(=O)N1C(=O)[C@@]2(c3cc(C#CCC(C(=O)OC)C(=O)OC)ccc31)[C@H](C(=O)N1CCN(c3ncccn3)CC1)[C@H]1C(=O)O[C@H](c3ccccc3)[C@H](c3ccccc3)N1[C@@H]2c1ccc(OCCO)cc1 | -1.83
C=CCOC(=O)[C@@H]1[C@H]2C(=O)O[C@H](c3ccccc3)[C@H](c3ccccc3)N2[C@H](c2ccc(OCCOC(=O)[C@@H]3C[C@@H]4C(=O)NCC(=O)N4[C@@H]3c3cccc(OCCO)c3)cc2)[C@@]12C(=O)Nc1ccc(I)cc12 | -0.545
CCC[C@@H]1C=C(C(=O)O)[C@H](c2ccc(C)cc2)N1S(=O)(=O)c1ccc(C)cc1 | -0.527
CCOC(=O)[C@H]1C/C=C/C[C@H](C(=O)OCC)C(=O)O[C@H]2[C@@H](OC)O[C@H](CO)[C@@H](OC(=O)Nc3ccc4c(c3)OCO4)[C@@H]2OC1=O | 0.484
COC(=O)[C@@]1(Cc2ccc(OC)cc2)[C@H]2c3cc(C(=O)N4CCCC4)n(Cc4ccccn4)c3C[C@H]2CN1C(=O)c1ccccc1 | 0.201
COCC(=C=CC[C@@H](O)c1ccc(CO)o1)CCO | 0.014

Reference for the values: PubChem BioAssay
